Listed compounds paired with reported Population Mitotic Cells (%)
System: Fibroblast
Experiment: Multiplex assay against human fibroblast
Format: toxicity, cell-based
Conditions: 48 h, 10 µM, compound concentration 10 uM, replicate 1
Numeric answer only, unit % assumed.

>>> observed_measurement("O=C1NCN(c2ccccc2)C12CCN(CCCOc1ccc(F)cc1)CC2 [SPIRAMIDE]")
30

Turning now to a further record.
QUERY: Form field: reported Population Mitotic Cells (%) of CN1CCCC(n2nc(Cc3ccc(Cl)cc3)c3ccccc3c2=O)CC1.Cl (stereo not drawn) [AZELASTINE HYDROCHLORIDE]
RESULT: 10

* * *

Listed molecules paired with reported Population Tubulin-Different-Phenotype (%)
Tested on: Fibroblast
Test: Multiplex assay against human fibroblast
Type: toxicity, cell-based
Details: 12 h, 10 µM, compound concentration 10 uM, replicate 2
Numeric answer only, unit % assumed.

Here is how some molecules turned out for Population Tubulin-Different-Phenotype (%).
>>> observed_measurement("Cc1[nH]c(/C=C2\\C(=O)Nc3ccc(S(=O)(=O)N(C)c4cccc(Cl)c4)cc32)c(C)c1C(=O)N1CCN(C)CC1")
100
>>> observed_measurement("Cc1c(-c2ccc(O)cc2)n(Cc2ccc(OCCN3CCCCCC3)cc2)c2ccc(O)cc12")
100
>>> observed_measurement("CN(C)C(=O)/C(C#N)=C/c1ccc(-c2nc3cnc4[nH]ccc4c3n2C2CCCCC2)o1")
70
>>> observed_measurement("Cl.N#Cc1ccc2[nH]cc(CCCCN3CCN(c4ccc5oc(C(N)=O)cc5c4)CC3)c2c1 [VILAZODONE HYDROCHLORIDE]")
92
>>> observed_measurement("CC(C)(O)CNc1ncc(-c2ccnc(Nc3ccnc(Cl)c3)n2)c(CC2CC2)n1")
100

QUERY: Write down the reported Population Tubulin-Different-Phenotype (%) of COc1cccc([C@@H](C)NCCCc2ccccc2Cl)c1.Cl [TECALCET HYDROCHLORIDE] , test system: Fibroblast.
RESULT: 96

QUERY: Same question for CN1CCN(c2ccc(OC(F)(F)F)c(Nc3ncc4c(n3)-c3c(c(C(N)=O)nn3CCO)CC4)c2)CC1 please.
RESULT: 78

QUERY: Same question for Cc1nc(-c2cn3c(n2)-c2ccc(-c4cnn(C(C)(C)C(N)=O)c4)cc2OCC3)n(C(C)C)n1 please.
RESULT: 0

QUERY: Same question for O=C1NCN(c2ccccc2)C12CCN(CCCOc1ccc(F)cc1)CC2 [SPIRAMIDE] please.
RESULT: 12

QUERY: Same question for C=CC(=O)Nc1cccc(C(=O)Nc2ccc(Nc3cc(-c4[nH]c(SC)nc4C)ccn3)cc2)c1 please.
RESULT: 12

* * *

Test system: HEK-293T
Test: Incucyte cell viability with HEK293T; note: filed as whole numbers so only -1 and 0 and 1 occur
Assay type: toxicity, cell-based
Details: human, 24 h, 10 µM, compound concentration 10 uM, replicate number 1, timepoint 24 hours
endpoint-label: Growth Rate
Give the figure only, with no unit attached.

Here is how some molecules turned out for Growth Rate.
>>> observed_measurement("CN(C)c1ncnc(-c2ccc3nc(Nc4cc(CN5CCN(C(=O)CC(F)(F)F)CC5)ccn4)[nH]c3c2)c1Cl")
0
>>> observed_measurement("CC(C)(C)NCC(O)COc1cccc2[nH]c(=O)[nH]c12.Cl (centres undefined)")
1
>>> observed_measurement("C[C@@]1(C(=O)Nc2ccc(F)nc2)CCCN1c1nc(Nc2cc(C3CC3)n[nH]2)c2cccn2n1")
0

Turning now to a further record.
QUERY: Form field: reported Growth Rate of Cc1nc(Nc2n[nH]c3c2CN(C(=O)N[C@H](CN(C)C)c2ccccc2)C3(C)C)c2sccc2n1
RESULT: 0

* * *

System: Fibroblast
Assay: Multiplex assay against human fibroblast
Type: toxicity, cell-based
Conditions: 48 h, 10 µM, compound concentration 10 uM, replicate 1
Population Membrane Permeable-Phenotype (%) vs 10%: at or above is 1, below is 0.

Past entries and their recorded results:
>>> assigned_class("CNc1nc(NCc2ccc(NS(C)(=O)=O)cc2Cl)cc(-c2ccccn2)n1")
1
>>> assigned_class("CN1CCCC(n2nc(Cc3ccc(Cl)cc3)c3ccccc3c2=O)CC1.Cl (centres undefined) [AZELASTINE HYDROCHLORIDE]")
1

QUERY: Decide: is the reported value of Population Membrane Permeable-Phenotype (%) for C[C@@H](NCCCc1cccc(C(F)(F)F)c1)c1cccc2ccccc12.Cl [CINACALCET HYDROCHLORIDE] equal to or greater than 10%?
RESULT: 0

* * *

Test system: Fibroblast
Assay: Multiplex assay against human fibroblast
Format: toxicity, cell-based
Details: 48 h, 10 µM, compound concentration 10 uM, replicate 2
Label 1 when Population Mitochondria Different-Phenotype (%) is strictly below 9%; otherwise label -1.

Past entries and their recorded results:
>>> assigned_class("OC1(c2ccc(Cl)cc2)CCN(Cc2c[nH]c3ccccc23)CC1")
-1
>>> assigned_class("CN1CCN(CCOc2cc(OC3CCOCC3)c3c(Nc4c(Cl)ccc5c4OCO5)ncnc3c2)CC1")
-1
>>> assigned_class("Cc1[nH]c(/C=C2\\C(=O)Nc3ccc(S(=O)(=O)N(C)c4cccc(Cl)c4)cc32)c(C)c1C(=O)N1CCN(C)CC1")
-1
>>> assigned_class("CCn1c(=O)c(-c2ccc(Cl)cc2Cl)cc2cnc(Nc3ccc(N4CCNCC4)c(F)c3)nc21")
1
>>> assigned_class("Cc1c(-c2ccc(O)cc2)n(Cc2ccc(OCCN3CCCCCC3)cc2)c2ccc(O)cc12")
-1

QUERY: Say whether its Population Mitochondria Different-Phenotype (%) is strictly beneath 9%. Entry: COc1cc(-n2cnc3cc(-c4ccc(Cl)cc4)sc3c2=O)ccc1OCCN1CCCC1
RESULT: -1

* * *

Test system: Fibroblast
Test: Incucyte cell viability with human fibroblast; note: filed as whole numbers so only -1 and 0 and 1 occur
Type: toxicity, cell-based
Details: 6 h, 10 µM, compound concentration 10 uM, replicate number 1, timepoint 6 hours
endpoint-label: Growth Rate
Give the figure only, with no unit attached.

Here is how some molecules turned out for Growth Rate.
>>> observed_measurement("O=C(NCc1ncc(C(F)(F)F)cc1Cl)c1ccc2c(c1)C1(CCS(=O)(=O)CC1)[C@H](C1CC1)N2S(=O)(=O)c1ccc(F)cc1")
0
>>> observed_measurement("N[C@H](C(=O)O)c1ccc(C(=O)O)c(C(=O)O)c1")
1

Turning now to a further record.
QUERY: Write down the reported Growth Rate of CC1(C)CCC(C)(C)c2cc(C3(c4ccc(C(=O)O)cc4)OCCO3)ccc21 , test system: Fibroblast.
RESULT: 1

* * *

Tested on: HEK-293T
Assay: Multiplex assay against HEK293T
Assay type: toxicity, cell-based
Settings: human, 24 h, 1 µM, compound concentration 1 uM, replicate 2
Listed compounds paired with reported Population Healthy Nuclei (%)
Just so you know, I need the unit written after the number.

Here is how some compounds turned out for Population Healthy Nuclei (%).
>>> observed_measurement("CC(C)NCC(O)COc1ccc(CCOCC2CC2)cc1.Cl (centres undefined) [BETAXOLOL HYDROCHLORIDE]")
"64%"
>>> observed_measurement("CN1CCC[C@@H]1CCO[C@](C)(c1ccccc1)c1ccc(Cl)cc1.O=C(O)/C=C/C(=O)O [CLEMASTINE FUMARATE]")
"60%"
>>> observed_measurement("C[C@@]1(C(=O)Nc2ccc(F)nc2)CCCN1c1nc(Nc2cc(C3CC3)n[nH]2)c2cccn2n1")
"82%"

Turning now to a further record.
QUERY: Form field: reported Population Healthy Nuclei (%) of CC(C)(O)CNc1ncc(-c2ccnc(Nc3ccnc(Cl)c3)n2)c(CC2CC2)n1
RESULT: 34%

* * *

System: Fibroblast
Experiment: Multiplex assay against human fibroblast
Type: toxicity, cell-based
Settings: 12 h, 10 µM, compound concentration 10 uM, replicate 1
endpoint-label: Population Mitochondria Different-Phenotype (%)
Numeric answer only, unit % assumed.

Here is how some molecules turned out for Population Mitochondria Different-Phenotype (%).
>>> observed_measurement("Cc1csc2c(N[C@@H](C)CN3CCN(S(=O)(=O)c4ccc(Cl)c(Cl)c4)CC3)ncnc12")
42
>>> observed_measurement("O=C1NCN(c2ccccc2)C12CCN(CCCOc1ccc(F)cc1)CC2 [SPIRAMIDE]")
54
>>> observed_measurement("COc1ncc(-c2ccc3nccc(-c4ccnnc4)c3c2)cc1NS(=O)(=O)c1ccc(F)cc1F")
6
>>> observed_measurement("COc1cccc([C@@H](C)NCCCc2ccccc2Cl)c1.Cl [TECALCET HYDROCHLORIDE]")
17
>>> observed_measurement("COc1cc2nccc(Oc3ccc(NC(=O)Nc4cc(C)on4)c(Cl)c3)c2cc1OC.O")
31

QUERY: Form field: reported Population Mitochondria Different-Phenotype (%) of Cc1sc2c(c1C)C(c1ccc(Cl)cc1)=N[C@@H](CC(=O)OC(C)(C)C)c1nnc(C)n1-2
RESULT: 0

QUERY: Same question for OC1(c2ccc(Cl)cc2)CCN(Cc2c[nH]c3ccccc23)CC1 please.
RESULT: 34

QUERY: Same question for CC[C@H](C)C(=O)O[C@H]1C[C@@H](C)C=C2C=C[C@H](C)[C@H](CC[C@@H]3C[C@@H](O)CC(=O)O3)[C@H]21 please.
RESULT: 13
